- Target: T1, ErbB2 extracellular domain (recombinant) (UniProt P04626 23-652, limits assumed)
- T1 construct: extracellular domain; also called whole ectodomain of erbB2; full-size erbB2 ectodomain
- Protocol Summary: SPR; peptide 10 µM preinjected over immobilized ErbB2, then ErbB3 (300 nM) with HRGβ1 (5 µM); competitor: erbB3-HRGβ1
Bridge positions count the residues as written; N and C are the ends. Ends that are not written are not given here.
Observable: Percent Inhibition (%)

# annotated cases, reported Percent Inhibition shown
[
  {
    "Binder": "YCLVWKYADAGCY (disulfide 2-12 (inferred)) [B1-S22-ALG (derived from erbB1)]",
    "Percent Inhibition, %": 71.4
  },
  {
    "Binder": "YCPIYKYPDVQCY (disulfide 2-12 (inferred)) [B3-S22-APQ (derived from erbB3)]",
    "Percent Inhibition, %": 58.1
  },
  {
    "Binder": "YCPIWKFPDEECY (disulfide 2-12 (inferred)) [B2-S22-APE (derived from erbB2)]",
    "Percent Inhibition, %": 51.1
  }
]

I. YCFIFKYADPDCY (disulfide 2-12 (inferred)) [B4-S22-AFD (derived from erbB4)]
II. YCFPDEEGACY (disulfide 2-10 (inferred)) [B2-S22-AFA (derived from erbB2)]
stdin: Returns the identifier with the smallest measured Percent Inhibition among I and II . I would appreciate it if you answered with the label of your choice.
stdout: I
